Target: pHrodo-labeled tau P301L soluble oligomer, P10636
Sequence (P10636 other isoform, or with tags, fused parts or gaps P301L P301L): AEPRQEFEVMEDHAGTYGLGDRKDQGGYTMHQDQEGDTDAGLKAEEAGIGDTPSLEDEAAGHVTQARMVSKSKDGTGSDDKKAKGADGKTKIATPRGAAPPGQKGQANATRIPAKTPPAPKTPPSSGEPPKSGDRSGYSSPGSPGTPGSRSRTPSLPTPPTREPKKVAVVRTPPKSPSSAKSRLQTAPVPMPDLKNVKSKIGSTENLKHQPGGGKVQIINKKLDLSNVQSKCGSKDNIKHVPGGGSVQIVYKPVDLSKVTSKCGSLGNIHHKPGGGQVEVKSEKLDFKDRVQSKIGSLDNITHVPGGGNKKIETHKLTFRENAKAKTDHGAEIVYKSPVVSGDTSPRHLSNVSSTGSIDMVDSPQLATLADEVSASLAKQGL
Experiment: cell-based or functional assay
Kindly state internalized pHrodo-tau in B103 cells (FACS), antibody at 0.98 µg/mL (% of maximum signal) for each of the entries shown.
Write the number on its own, no unit after it.

Please report the recorded internalized pHrodo-tau in B103 cells (FACS), antibody at 0.98 µg/mL (% of maximum signal) for mouse 10C12 antibody (antibody, mouse IgG2a, V domains shown, here or on the partner: pHrodo label) VH: EVQLQQSGAELVRPGASVKLSCTASGFNIKDDYMNWVKQRPERGLEWIGWIDPENGDTEYASKFQGKATMTADTSSNTAYLQFSSLTSEDTAVYYCTTSNGWGQGTLVTVST VL: DIVMTQAAFSNPVTLGTSASISCRSSKSLLHSNGITYLYWYLQKPGQSPQLLIYQMSNLASGVPDRFSSSGSGTDFTLRISRVEAEDVGVYYCAQNLELPLTFGAGTKLELK .
90.5

Please report the recorded internalized pHrodo-tau in B103 cells (FACS), antibody at 0.98 µg/mL (% of maximum signal) for mouse 17C12 antibody (antibody, mouse IgG2a, V domains shown, here or on the partner: pHrodo label) VH: KIQLQQSGAELVRPGASVKLSCTASAFNIKDDYMNWVKQRPERGLEWIGWIDPENGDTKYASKFQGKATMTADTSSNTAYLQLSSLTSEDTAVYYCTTSNGWGQGTLVTVSA VL: DVVMTQTPLTLSVTIGQPASISCTSSQSLLHSNRKTYLHWLLQRPGQSPKLLIYLVSKLESGVPDRFSGSGSGTDFTLKISRVEAEDLGVYYCLQTTHFPRTFGGGTKLEIK .
63.9

Please report the recorded internalized pHrodo-tau in B103 cells (FACS), antibody at 0.98 µg/mL (% of maximum signal) for mouse 12C4 antibody (antibody, mouse IgG2a, V domains shown, here or on the partner: pHrodo label) VH: EVQLQQSGAELVRPGASVKLSCTASGFNIKDDYMNWVRQRPERGLEWIGWIDPENGDTAYASKFQGKATMTADTSSNTAYLQFSSLTSEDSAVYYCTTSNGWGQGTLVTVSA VL: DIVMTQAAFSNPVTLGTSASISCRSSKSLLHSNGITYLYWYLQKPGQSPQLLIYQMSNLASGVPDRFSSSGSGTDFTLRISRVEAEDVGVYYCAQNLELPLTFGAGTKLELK .
69.7
